# reported pIC50; entries follow
# Tested on: EW-1;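 further: growth inhibition of the human EW-1 cell line, read out by a cell viability assay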
# assay_protocol: cells
# Type: functional, cell-based, Homo sapiens
# condition_summary: Homo sapiens, EW-1
# Description: SANGER: Inhibition of human EW-1 cell growth in a cell viability assay.
pIC50: −log10 of the molar value.

* C=CCNC1=C2C[C@@H](C)C[C@H](OC)[C@H](O)[C@@H](C)/C=C(\C)[C@H](OC(N)=O)[C@@H](OC)/C=C\C=C(/C)C(=O)NC(=CC1=O)C2=O | < 6.00

Query: Give EW-1 pIC50 for Cn1cc(C2=C(c3ccc(Cl)cc3Cl)C(=O)NC2=O)c2ccccc21
Response: < 5.00

Query: Give EW-1 pIC50 for Cn1cncc1[C@@](N)(c1ccc(Cl)cc1)c1ccc2c(c1)c(-c1cccc(Cl)c1)cc(=O)n2C
Response: 4.91

Query: Give EW-1 pIC50 for COC(=O)CNC(=O)C(=O)OC
Response: 3.01

Query: Give EW-1 pIC50 for CNC(=O)c1cc(Oc2ccc(NC(=O)Nc3ccc(Cl)c(C(F)(F)F)c3)cc2)ccn1
Response: < 5.40

Query: Give EW-1 pIC50 for COc1cc(F)c(F)c(Nc2ccc(I)cc2F)c1NS(=O)(=O)C1(CC(O)CO)CC1 (stereo unspecified)
Response: < 5.30
